Biological target: Mitogen-activated protein kinase 14 (Homo sapiens); further: in other assays of this panel Not Active means under 50% inhibition at 10 µM;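 further: inhibition of p38alpha enzyme activity in a biochemical kinase assay, with myelin basic protein serving as substrate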
Sequence (Q16539 whole entry): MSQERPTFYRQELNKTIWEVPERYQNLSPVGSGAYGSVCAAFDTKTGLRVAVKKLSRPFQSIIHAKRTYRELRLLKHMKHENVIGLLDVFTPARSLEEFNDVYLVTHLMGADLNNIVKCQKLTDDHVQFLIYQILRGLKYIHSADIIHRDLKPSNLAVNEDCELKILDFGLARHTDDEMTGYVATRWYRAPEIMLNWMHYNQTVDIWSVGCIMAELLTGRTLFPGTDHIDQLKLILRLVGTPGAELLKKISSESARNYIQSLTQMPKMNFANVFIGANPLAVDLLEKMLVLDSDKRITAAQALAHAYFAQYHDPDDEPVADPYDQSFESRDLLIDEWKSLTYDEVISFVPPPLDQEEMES
Parameters: species or system Escherichia coli
measured_parameter: IC50

Here's what some known entries look like.
compound	IC50
CS(=O)(=O)Nc1ccc([N+](=O)[O-])cc1Oc1ccccc1 [NIMESULIDE]	Not Active
N=C(N)c1ccc(OCCCCCOc2ccc(C(=N)N)cc2)cc1	Not Active
ClC(Cl)(Cl)Cl [CARBON TETRACHLORIDE]	Not Active
N[C@@H](Cn1ccc(=O)c(O)c1)C(=O)O	Not Active
Cc1ccc(C)c(OCCCC(C)(C)C(=O)O)c1	Not Active

Ask | What value of IC50 has been reported for the following compound? CCCNC(=O)NS(=O)(=O)c1ccc(Cl)cc1 [CHLORPROPAMIDE]
Reply | Not Active

Ask | What value of IC50 has been reported for the following compound? CC(=O)OCC(=O)[C@@]1(O)CC[C@H]2[C@@H]3CCC4=CC(=O)CC[C@]4(C)[C@@]3(F)[C@@H](O)C[C@@]21C [FLUDROCORTISONE ACETATE]
Reply | Not Active
